System: Equilibrative nucleoside transporter 1 (Homo sapiens, UniProt Q99808) | Read-out: pKi
Sequence (Q99808 whole entry): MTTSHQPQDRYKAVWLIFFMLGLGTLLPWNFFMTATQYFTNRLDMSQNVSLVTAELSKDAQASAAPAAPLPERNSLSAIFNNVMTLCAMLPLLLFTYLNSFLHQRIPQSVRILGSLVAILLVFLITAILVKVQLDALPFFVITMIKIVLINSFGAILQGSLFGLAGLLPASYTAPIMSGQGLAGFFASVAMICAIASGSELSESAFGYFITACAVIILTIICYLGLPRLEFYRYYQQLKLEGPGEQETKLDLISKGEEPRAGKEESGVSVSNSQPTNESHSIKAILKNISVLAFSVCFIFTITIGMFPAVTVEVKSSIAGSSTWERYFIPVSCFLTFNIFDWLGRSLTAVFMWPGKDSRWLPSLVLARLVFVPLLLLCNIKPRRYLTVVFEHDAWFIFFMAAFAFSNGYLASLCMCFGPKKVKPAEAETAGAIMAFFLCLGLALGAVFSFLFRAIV
Give bare numbers, as −log10 of the molar value.

Q: Using the record for OC[C@H]1O[C@@H](n2cnc3c(SCc4ccccc4F)ncnc32)[C@H](O)[C@@H]1O , state its measured pKi.
A: 7.70

# map each molecule to its pKi
1. OC[C@H]1O[C@@H](n2cnc3c(SCc4ccccc4I)ncnc32)[C@H](O)[C@@H]1O
2. OC[C@H]1O[C@@H](n2cnc3c(SCc4cccc(Cl)c4)ncnc32)[C@H](O)[C@@H]1O
3. OC[C@H]1O[C@@H](n2cnc3c(SCc4cccc(F)c4)ncnc32)[C@H](O)[C@@H]1O
4. OC[C@H]1O[C@@H](n2cnc3c(SCc4cccc(I)c4)ncnc32)[C@H](O)[C@@H]1O

A:
7.79
7.80
7.95
7.86

Cited source: ChEMBL document CHEMBL1147566
